Assay: Solubility of levodopa esters and carbidopa propyl ester in water acidified with acetic acid
Format: physicochemical
Details: pH 5, aqueous buffer, thermodynamic from solid
Protocol: Without limitation, in one example, substance 14 may include several levodopa esters, including the ethyl ester, propyl ester, isopropyl ester and butyl ester. In experiments, these esters were successfully dissolved in water to which was added acetic acid until attaining pH 5 (in some cases pH 4.5). […] The propyl ester of carbidopa was solubilized under the same conditions and a clear solution of 100 mg/ml of the carbidopa propyl ester was obtained. […]
MEASUREMENT_LABEL: solubility

compound="CC(C)OC(=O)[C@@H](N)Cc1ccc(O)c(O)c1 [isopropyl ester]" result="≥ 400 mg/mL"
